assayedSystem: Sodium channel alpha subunits; brain (Types I, II, III) (Rattus norvegicus, UniProt P04775+P04774+P08104)
protocolNotes: Displacement of [3H]BTX from sodium channel of rat cerebral cortex synaptosomes
Assay type: subcellular
observedProperty: pKi
// field semantics: pKi = negative decimal log of concentration (mol/L)

# input Please report the recorded pKi for C[C@H](CN1CCC2(C)c3ccc(O)cc3C[C@H]1C2(C)C)Oc1ccccc1 .
# output 6.06

# input Could you tell me which pKi is on file for CO[C@@H](C)CN1CCC2(C)c3cccc(O)c3C[C@H]1C2(C)C ?
# output 5.00

# input // pKi lookup, key: C[C@@H](CN1CCC2(C)c3ccc(O)cc3C[C@@H]1C2(C)C)OCc1ccccc1
# output 6.51

# input What pKi value was documented for this compound, C[C@@H](CN1CCC2(C)c3ccc(O)cc3C[C@H]1C2(C)C)OCc1ccccc1 ?
# output 5.73

# input # get_value(readout='pKi', item= Cc1ccc(-c2nc(CN3CCN(C(c4ccccc4)c4ccccc4)CC3)c(C)[nH]2)cc1 )
# output 6.59

----------
assayedSystem: Sodium channel alpha subunits; brain (Types I, II, III) (Rattus norvegicus) (UniProt P04775+P04774+P08104)
Sequence (P04775 whole entry, looked up, other chains not shown): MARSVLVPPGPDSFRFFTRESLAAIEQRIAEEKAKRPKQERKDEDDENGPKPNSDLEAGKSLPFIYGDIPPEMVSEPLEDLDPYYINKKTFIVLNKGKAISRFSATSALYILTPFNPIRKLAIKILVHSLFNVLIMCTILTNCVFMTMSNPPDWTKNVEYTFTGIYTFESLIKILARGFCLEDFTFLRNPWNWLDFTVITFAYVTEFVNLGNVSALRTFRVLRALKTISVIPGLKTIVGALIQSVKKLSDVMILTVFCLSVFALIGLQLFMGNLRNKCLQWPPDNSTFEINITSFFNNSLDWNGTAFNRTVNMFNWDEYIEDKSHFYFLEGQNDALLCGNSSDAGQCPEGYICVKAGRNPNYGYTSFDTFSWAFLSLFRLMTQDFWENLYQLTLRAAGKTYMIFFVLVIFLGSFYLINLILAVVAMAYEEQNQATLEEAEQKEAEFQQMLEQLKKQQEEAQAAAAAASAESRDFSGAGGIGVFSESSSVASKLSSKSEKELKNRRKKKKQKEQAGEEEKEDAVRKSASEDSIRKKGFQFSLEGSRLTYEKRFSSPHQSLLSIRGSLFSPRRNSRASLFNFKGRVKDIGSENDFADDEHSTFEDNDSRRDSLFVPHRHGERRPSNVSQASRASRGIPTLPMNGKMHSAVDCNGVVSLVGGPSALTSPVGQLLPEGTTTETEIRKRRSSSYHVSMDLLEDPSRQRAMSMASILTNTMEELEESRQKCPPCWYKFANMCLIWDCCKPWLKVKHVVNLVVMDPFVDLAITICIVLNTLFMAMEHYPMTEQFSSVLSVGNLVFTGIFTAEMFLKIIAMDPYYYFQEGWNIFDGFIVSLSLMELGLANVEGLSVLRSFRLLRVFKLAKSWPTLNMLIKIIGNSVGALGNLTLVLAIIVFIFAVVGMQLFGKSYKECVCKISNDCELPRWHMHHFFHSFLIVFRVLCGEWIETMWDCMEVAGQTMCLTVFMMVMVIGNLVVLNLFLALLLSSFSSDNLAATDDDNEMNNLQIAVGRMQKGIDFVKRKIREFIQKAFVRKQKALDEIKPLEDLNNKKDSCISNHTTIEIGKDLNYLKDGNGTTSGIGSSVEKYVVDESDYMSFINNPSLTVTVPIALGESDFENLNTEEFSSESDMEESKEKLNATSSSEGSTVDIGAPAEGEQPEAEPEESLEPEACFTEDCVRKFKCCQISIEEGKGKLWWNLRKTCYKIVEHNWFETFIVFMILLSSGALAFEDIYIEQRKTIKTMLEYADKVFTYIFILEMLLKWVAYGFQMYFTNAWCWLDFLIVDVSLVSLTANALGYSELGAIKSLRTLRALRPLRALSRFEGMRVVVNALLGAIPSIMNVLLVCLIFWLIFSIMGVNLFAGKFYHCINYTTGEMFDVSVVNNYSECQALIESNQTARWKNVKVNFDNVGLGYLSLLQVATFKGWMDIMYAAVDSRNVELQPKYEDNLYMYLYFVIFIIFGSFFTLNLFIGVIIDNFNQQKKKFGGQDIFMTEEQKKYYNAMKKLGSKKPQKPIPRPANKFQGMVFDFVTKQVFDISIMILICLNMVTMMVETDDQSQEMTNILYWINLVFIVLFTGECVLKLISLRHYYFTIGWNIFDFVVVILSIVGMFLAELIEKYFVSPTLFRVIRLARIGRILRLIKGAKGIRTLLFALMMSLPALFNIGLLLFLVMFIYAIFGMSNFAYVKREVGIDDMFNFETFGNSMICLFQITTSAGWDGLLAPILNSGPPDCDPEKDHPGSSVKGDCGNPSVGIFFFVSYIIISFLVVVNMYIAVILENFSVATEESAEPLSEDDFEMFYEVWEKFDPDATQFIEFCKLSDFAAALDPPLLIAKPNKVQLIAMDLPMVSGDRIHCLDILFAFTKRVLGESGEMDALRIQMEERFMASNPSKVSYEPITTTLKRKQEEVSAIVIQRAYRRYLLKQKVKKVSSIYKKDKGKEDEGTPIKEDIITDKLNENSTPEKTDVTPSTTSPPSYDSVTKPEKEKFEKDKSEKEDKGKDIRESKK
Sequence (P08104 whole entry, looked up, other chains not shown): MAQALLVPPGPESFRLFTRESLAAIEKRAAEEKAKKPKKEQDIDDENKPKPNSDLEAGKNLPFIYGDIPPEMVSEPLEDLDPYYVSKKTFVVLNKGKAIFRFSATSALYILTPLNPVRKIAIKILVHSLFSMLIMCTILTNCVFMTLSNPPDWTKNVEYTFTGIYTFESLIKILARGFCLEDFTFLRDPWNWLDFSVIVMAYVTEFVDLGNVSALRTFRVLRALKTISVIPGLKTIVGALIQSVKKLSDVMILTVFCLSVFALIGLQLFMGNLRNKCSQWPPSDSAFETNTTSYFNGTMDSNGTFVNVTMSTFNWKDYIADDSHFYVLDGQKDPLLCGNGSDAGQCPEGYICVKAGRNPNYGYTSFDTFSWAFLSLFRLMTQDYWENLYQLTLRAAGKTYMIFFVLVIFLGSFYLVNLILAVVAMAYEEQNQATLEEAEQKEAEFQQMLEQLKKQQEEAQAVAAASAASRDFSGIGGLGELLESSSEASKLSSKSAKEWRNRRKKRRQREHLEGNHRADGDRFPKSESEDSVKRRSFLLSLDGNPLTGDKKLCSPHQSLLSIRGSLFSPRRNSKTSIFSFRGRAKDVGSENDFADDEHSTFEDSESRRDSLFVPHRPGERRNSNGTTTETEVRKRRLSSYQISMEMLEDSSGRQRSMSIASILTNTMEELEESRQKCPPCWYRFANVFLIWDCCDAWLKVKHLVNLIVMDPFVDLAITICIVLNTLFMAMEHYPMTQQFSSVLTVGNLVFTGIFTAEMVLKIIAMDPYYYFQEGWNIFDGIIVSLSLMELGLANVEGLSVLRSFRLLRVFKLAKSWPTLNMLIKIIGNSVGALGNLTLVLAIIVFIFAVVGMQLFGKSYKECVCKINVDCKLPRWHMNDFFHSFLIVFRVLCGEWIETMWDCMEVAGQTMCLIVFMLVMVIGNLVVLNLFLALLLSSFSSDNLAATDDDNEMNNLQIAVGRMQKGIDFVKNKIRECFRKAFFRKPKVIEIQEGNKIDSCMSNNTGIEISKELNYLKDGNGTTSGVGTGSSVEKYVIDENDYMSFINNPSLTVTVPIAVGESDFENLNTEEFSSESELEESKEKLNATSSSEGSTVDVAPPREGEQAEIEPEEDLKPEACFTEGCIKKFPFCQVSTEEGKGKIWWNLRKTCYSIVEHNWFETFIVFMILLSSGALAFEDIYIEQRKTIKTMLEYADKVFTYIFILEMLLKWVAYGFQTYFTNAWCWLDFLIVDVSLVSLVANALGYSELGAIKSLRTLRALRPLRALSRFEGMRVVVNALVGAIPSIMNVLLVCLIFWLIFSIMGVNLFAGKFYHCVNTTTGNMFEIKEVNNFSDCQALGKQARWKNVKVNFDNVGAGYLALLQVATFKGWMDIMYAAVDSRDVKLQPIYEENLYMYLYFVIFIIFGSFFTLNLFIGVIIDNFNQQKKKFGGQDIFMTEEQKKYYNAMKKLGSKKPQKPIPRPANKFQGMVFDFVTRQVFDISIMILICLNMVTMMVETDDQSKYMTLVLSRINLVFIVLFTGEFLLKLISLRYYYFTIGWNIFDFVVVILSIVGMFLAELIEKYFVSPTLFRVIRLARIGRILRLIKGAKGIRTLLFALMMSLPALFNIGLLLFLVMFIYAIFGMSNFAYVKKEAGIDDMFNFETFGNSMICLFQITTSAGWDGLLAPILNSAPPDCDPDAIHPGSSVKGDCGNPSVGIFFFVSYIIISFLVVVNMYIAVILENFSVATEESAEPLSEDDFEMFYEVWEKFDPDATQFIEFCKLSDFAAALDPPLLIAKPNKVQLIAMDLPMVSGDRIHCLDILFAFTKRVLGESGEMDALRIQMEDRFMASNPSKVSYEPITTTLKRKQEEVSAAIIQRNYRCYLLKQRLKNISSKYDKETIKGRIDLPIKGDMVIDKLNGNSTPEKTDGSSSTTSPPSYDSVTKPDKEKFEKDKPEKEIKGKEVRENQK
protocolNotes: Percent inhibition of veratridine-induced glutamate release in rat brain slices at 10000 nmol/L
Assay type: functional, tissue-based
observedProperty: inhibition (%)
The figure you give is taken to be in %; do not add the unit.

# input Recorded inhibition for COC(C)CN1CCC2(C)c3c(O)cccc3C[C@@H]1C2(C)C (some centres not stated) , please?
# output 23

# input Consider the compound CO[C@@H](C)CN1CCC2(C)c3cccc(O)c3C[C@H]1C2(C)C and give its measured inhibition.
# output 25

# input Can you look up the measured inhibition of COc1ccc2c(c1)[C@]13CCCC[C@@H]1[C@H](C2)N(C)CC3 [DEXTROMETHORPHAN] for me?
# output 5

# input Need inhibition, item CO[C@H](C)CN1CCC2(C)c3cccc(O)c3C[C@H]1C2(C)C
# output 42

# input Dear colleague, I am looking for the recorded inhibition of the following compound: CO[C@@H](C)CN1CCC2(C)c3ccccc3C[C@@H]1C2(C)C
# output 52

# input If you can, please state the reported inhibition value of COC(C)CN1CCC2(C)c3cc(O)ccc3C[C@@H]1C2(C)C (some centres not stated) .
# output 29

# input Could you share which inhibition value was measured for COC(C)CN1CCC2(C)c3ccc(O)cc3C[C@@H]1C2(C)C (some centres not stated) ?
# output 21

----------
assayedSystem: Sodium channel alpha subunits; brain (Types I, II, III) (Rattus norvegicus, UniProt P04775+P04774+P08104)
protocolNotes: Inhibitory effect against veratridine-induced glutamate release from rat brain slices
Format: functional
Label scheme for IC50: category 1 (below 500 nmol/L), category 2 (500 nmol/L to below 5000 nmol/L), category 3 (5000 nmol/L or more)

# input Just checking, what class would you give Cc1cccc(C)c1OCC(C)N (configuration not stated) [MEXILETINE] here?
# output category 3

# input Class? Entry: C[C@@H](CN1CCC2(C)c3cccc(O)c3C[C@@H]1C2(C)C)OCC1CCCCC1
# output category 2

# input State the class of the compound shown: CO[C@@H](C)CN1CCC2(C)c3cccc(O)c3C[C@H]1C2(C)C
# output category 3

# input Determine which band this compound sits in: C[C@@H](CN1CCC2(C)c3cccc(O)c3C[C@@H]1C2(C)C)OCc1ccccc1
# output category 1

# input Class? Entry: C[C@H](CN1CCC2(C)c3ccc(O)cc3C[C@H]1C2(C)C)OCc1ccccc1
# output category 2

# input Sort COC(C)CN1CCC2(C)c3ccc(O)cc3C[C@@H]1C2(C)C (some centres not stated) into one of the categories.
# output category 3

# input Categorize the following entry: CC12CCN(CCOCc3ccccc3)[C@H](Cc3c(O)cccc31)C2(C)C
# output category 1

# input Categorize the following entry: C[C@H](CN1CCC2(C)c3ccc(O)cc3C[C@@H]1C2(C)C)OCc1ccccc1
# output category 2

# input Which bin, given its IC50, does C[C@@H](CN1CCC2(C)c3ccc(O)cc3C[C@@H]1C2(C)C)Oc1ccccc1 occupy?
# output category 3

# input Class? Entry: CO[C@@H](C)CN1CCC2(C)c3cccc(O)c3C[C@@H]1C2(C)C
# output category 2

# input For the record CC1[C@H]2Cc3c(O)cccc3C1(C)CCN2C[C@@H](C)OCc1ccccc1 (some centres not stated) , report the class its IC50 corresponds to.
# output category 1

# input In plain terms, what class is COC(C)CN1CCC2(C)c3c(O)cccc3C[C@@H]1C2(C)C (some centres not stated) ?
# output category 3

# input Category of C[C@@H](CN1CCC2(C)c3ccc(O)cc3C[C@H]1C2(C)C)Oc1ccccc1 , please.
# output category 3

# input Which category fits this record: COc1ccc2c(c1)[C@]13CCCC[C@@H]1[C@H](C2)N(C)CC3 [DEXTROMETHORPHAN]
# output category 3
